- assayed-target: T1, human GIP receptor (human, UniProt P48546 22-466)
- T1 sequence (looked up): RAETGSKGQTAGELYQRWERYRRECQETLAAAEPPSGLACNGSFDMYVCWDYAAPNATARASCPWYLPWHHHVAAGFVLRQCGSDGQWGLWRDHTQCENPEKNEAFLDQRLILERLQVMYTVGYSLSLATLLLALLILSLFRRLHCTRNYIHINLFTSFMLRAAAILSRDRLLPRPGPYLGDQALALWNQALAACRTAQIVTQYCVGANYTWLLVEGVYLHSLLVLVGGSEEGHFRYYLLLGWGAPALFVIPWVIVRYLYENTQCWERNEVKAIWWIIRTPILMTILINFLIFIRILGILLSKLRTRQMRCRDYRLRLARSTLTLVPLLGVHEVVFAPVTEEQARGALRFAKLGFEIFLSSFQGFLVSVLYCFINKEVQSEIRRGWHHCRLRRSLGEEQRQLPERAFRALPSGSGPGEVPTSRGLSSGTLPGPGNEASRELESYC
- procedure-details: cell-based or functional assay
Numbered stars: 1 amine (or outer) side, 2 acyl side, 3 side chain; on linkers, the order of the positions; unused ones are H or OH. Square brackets hold non-standard residues; d marks the D form. Side chains are listed from the residue outwards. * marks the point of attachment. C20 diacid = O=C(O)CCCCCCCCCCCCCCCCCCC(=O)*; γGlu = O=C(O)[C@H](CCC(=O)[*:2])N[*:1]; Chem. 27 = not defined here; AEEA = NCCOCCOCC(=O)O; Aib = CC(C)(N)C(=O)O
Let's look at some binders and their measured hGIPR Potency, 1% HSA, EC50 [pM].
measure-name: hGIPR Potency, 1% HSA, EC50 [pM] (pM)

binder: Compound 115 (peptide) peptide: Y[Aib]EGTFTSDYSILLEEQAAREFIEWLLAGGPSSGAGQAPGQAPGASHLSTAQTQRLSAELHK([AEEA-AEEA-γGlu-C20 diacid])LATLPRTETGSGSP-NH2
numeric-result: 38.9

binder: Compound 179 (reading uncertain) peptide: Y[Aib]EGTFTSDYSILLEEIAAREFIEWLLAGGPSSGAGASHLSTAQTQRLSAELHK(Chem. 27)LATEPRTETGSGSP-NH2
numeric-result: 25.5

binder: Compound 176 (reading uncertain) peptide: Y[Aib]EGTFTSDYSILLEEIAAREFIEWLLAGGPSSGAGASELSTAQTQRLSAELHK(Chem. 27)LATLPRTETGSGSP-NH2
numeric-result: 23.8

binder: Compound 181 (reading uncertain) peptide: Y[Aib]EGTFTSDYSILLEEIAAREFIEWLLAGGPSSEAGASQLSTAQTQRLSAELHK(Chem. 27)LATLPRTETGSGSP-NH2
numeric-result: 20.1

binder: Compound 189 (reading uncertain) peptide: Y[Aib]EGTFTSDYSILLEEIAAREFIEWLLAGGPSSGAGEAPGEAPGASHLSTAQTQRLSAELHK(Chem. 27)LATLPRTETGSGSP-NH2
numeric-result: 9.18

binder: Compound 183 (reading uncertain) peptide: Y[Aib]EGTFTSDYSK(Chem. 27)LLEEIAAREFIEWLLAGGPSSGAGASELSTAQLGRLSAELHQLATLPRTETGSGSP-NH2
numeric-result: 71.4
